Structures can show the parent of a compound that is named as a salt.
property measured: melting point

The following compounds have reported results that may help.
CCCc1nccn1Cc1cn(-c2ccc(Cl)c(Cl)c2)cn1.Cl.Cl; 241 to 243 °C
Cc1nccn1Cc1cn(-c2cccc(Cl)c2)cn1 (as salt: hydrochloride); > 200 °C (dec.)
CCc1nccn1Cc1cn(-c2ccc(Cl)c(Cl)c2)cn1.Cl.Cl; > 250 °C
CCc1nccn1Cc1cn(-c2ccc(OC(F)F)cc2)cn1.Cl.Cl; 199 to 200 °C

Please state, for each entry, its recorded melting point.
1. CCc1nccn1Cc1cn(-c2cccc(C(C)(C)C)c2)cn1.Cl.Cl
2. COc1cc(-n2cnc(Cn3ccnc3)c2)ccc1C.Cl.Cl

Data returned:
1. 205 °C (dec.)
2. 249 to 251 °C

Please state, for each entry, its recorded melting point.
1. Cc1ccc(-n2cnc(Cn3ccnc3C)c2)cc1F.Cl.Cl
2. CCc1nccn1Cc1cn(-c2ccc3c(c2)COC3)cn1.Cl.Cl
3. Cc1ccc(-n2cnc(Cn3ccnc3)c2)cc1F.Cl.Cl
4. Cc1nccn1Cc1cn(-c2ccc(F)c(C(F)F)c2)cn1.Cl.Cl

Data returned:
1. > 250 °C
2. > 108 °C (dec.)
3. 223 to 224 °C
4. 223 to 225 °C (dec.)

* * *

Structures can show the parent of a compound that is named as a salt.
Give measured melting point for each item. Keep answers brief.

The following compounds have reported results that may help.
Cc1nccn1Cc1cn(-c2ccc3c(c2)OC(F)(F)O3)cn1.Cl.Cl; > 250 °C
Cc1cc(-n2cnc(Cn3cnc(C)c3C)c2)ccc1Cl.Cl.Cl; > 250 °C
Cc1nccn1Cc1cn(-c2ccc(-c3ccccc3)cc2)cn1.Cl.Cl; 169 to 175 °C

Please state, for each entry, its recorded melting point.
1. CCc1nccn1Cc1cn(-c2ccc(Cl)c(C(F)(F)F)c2)cn1.Cl.Cl
2. CCc1nccn1Cc1cn(-c2ccc(SC(F)(F)F)cc2)cn1.Cl.Cl
3. Cc1ccc(-n2cnc(Cn3ccnc3)c2)cc1C(F)(F)F.Cl.Cl
4. CCc1nccn1Cc1cn(-c2ccc3ccccc3n2)cn1 (as salt: sodium)
5. Cc1nccn1Cc1cn(-c2cccc(C(F)(F)F)c2)cn1.Cl.Cl
6. Cl.Cl.Clc1cccc(-n2cnc(Cn3ccnc3)c2)c1
7. Cc1nccn1Cc1cn(-c2cccc(C(C)C)c2)cn1.Cl.Cl

Data returned:
179 to 180 °C
183 to 185 °C
> 250 °C
> 80 °C (dec.)
218 to 220 °C
> 200 °C (dec.)
> 200 °C (dec.)

* * *

Where a name gives a salt, the structure may show the parent alone.
property measured: melting point

Please state, for each entry, its recorded melting point.
1. CCc1nccn1Cc1cn(-c2ccc(Cl)cn2)cn1 (as salt: sodium) [Example 213]
2. CCc1nccn1Cc1cn(-c2ccc3c(c2)OCO3)cn1.Cl.Cl

Data returned:
182 to 185 °C
> 250 °C

* * *

- target entity: NMDA-receptor subtype 2B (Rattus norvegicus, UniProt P35439+Q00960)
- Construct: Membranes were prepared by homogenization of the whole brain minus cerebellum and medulla oblongata
- Sequence (Q00960 27-1482, other chains not shown): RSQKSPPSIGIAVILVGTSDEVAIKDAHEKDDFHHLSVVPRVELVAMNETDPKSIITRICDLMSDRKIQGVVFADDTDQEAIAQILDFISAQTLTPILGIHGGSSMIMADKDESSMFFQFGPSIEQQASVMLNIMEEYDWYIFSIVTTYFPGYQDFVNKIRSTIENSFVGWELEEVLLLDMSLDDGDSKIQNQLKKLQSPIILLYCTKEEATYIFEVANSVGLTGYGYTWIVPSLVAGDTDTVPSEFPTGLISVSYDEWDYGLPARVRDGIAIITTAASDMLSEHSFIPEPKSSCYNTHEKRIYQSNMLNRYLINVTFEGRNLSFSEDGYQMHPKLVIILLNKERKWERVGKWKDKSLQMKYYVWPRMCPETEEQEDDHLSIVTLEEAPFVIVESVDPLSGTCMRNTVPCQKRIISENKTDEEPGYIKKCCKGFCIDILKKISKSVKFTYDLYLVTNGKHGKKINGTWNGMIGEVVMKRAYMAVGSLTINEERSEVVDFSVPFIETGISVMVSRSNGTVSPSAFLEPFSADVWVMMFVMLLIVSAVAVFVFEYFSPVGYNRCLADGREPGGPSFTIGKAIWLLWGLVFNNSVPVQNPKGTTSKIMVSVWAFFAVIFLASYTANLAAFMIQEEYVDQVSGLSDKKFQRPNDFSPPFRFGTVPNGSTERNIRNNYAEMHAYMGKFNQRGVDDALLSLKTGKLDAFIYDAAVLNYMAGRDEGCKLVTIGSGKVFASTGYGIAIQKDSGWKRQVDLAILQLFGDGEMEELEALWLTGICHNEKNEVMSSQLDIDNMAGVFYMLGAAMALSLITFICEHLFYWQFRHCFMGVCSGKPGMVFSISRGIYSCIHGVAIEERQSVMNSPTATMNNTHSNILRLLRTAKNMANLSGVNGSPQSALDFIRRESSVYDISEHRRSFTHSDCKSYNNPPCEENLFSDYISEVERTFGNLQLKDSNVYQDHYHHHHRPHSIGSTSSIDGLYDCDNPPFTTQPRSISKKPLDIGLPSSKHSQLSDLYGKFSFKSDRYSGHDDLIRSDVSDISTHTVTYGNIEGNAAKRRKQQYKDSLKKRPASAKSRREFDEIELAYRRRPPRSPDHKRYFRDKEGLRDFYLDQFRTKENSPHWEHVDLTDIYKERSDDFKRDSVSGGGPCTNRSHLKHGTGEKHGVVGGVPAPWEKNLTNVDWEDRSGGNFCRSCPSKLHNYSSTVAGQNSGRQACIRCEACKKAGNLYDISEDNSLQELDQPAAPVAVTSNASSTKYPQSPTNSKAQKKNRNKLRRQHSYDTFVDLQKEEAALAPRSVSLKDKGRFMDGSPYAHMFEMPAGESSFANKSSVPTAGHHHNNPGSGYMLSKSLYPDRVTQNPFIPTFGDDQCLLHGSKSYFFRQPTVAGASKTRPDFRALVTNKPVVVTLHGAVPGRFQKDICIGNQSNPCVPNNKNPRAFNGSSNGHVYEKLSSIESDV
- assay: 3H-Ro 25-6981 binding (displacement) on rat brain membranes
- run conditions: displacement of 5 nM 3H-Ro 25-6981, rat whole brain membranes (minus cerebellum and medulla oblongata), 2 hours at 4° C.
- Protocol: ^3H[R-(R*,S*)]-(α-(4-Hydroxy-phenyl)-β-methyl-4-(phenyl-methyl)-1-piperidine propanol)binding Male Füllinsdorf albino rats weighing between 150-200 g were used. […] For displacement experiments 5 nM of ^3H-Ro 25-6981 were used and non specific binding was measured using 10 mM of tetrahydroisoquinoline and usually it accounts for 10% of the total. […] The effects of compounds were measured using a minimum of 8 concentrations and repeated at least once.
pIC50: −log10 of the molar value.
Short version: pIC50 at least 8 is satisfied, less is not satisfied.

Some solved cases for reference:
CCc1nccn1Cc1cn(-c2ccc(OC)c(Cl)c2)cn1.Cl.Cl; not satisfied
C=Cc1cccc(-n2cnc(Cn3ccnc3C)c2)c1.Cl.Cl; not satisfied
Cc1cc(-n2cnc(Cn3ccnc3C)c2)ccc1Cl.Cl.Cl; satisfied
Cc1cc(-c2cnc(Cn3ccnc3C)n2C)ccc1Cl; not satisfied
CCc1cccc(-n2cnc(Cn3ccnc3)c2)c1.Cl.Cl; not satisfied
CC(C)c1cccc(-n2cnc(Cn3ccnc3)c2)c1.Cl.Cl; not satisfied
CCc1nccn1Cc1cn(-c2cc(F)cc(C(F)(F)F)c2)cn1.Cl.Cl; not satisfied
Cc1nccn1Cc1cn(-c2cc(F)cc(C(F)(F)F)c2)cn1.Cl.Cl; not satisfied

Data request: Decide: is the reported value of pIC50 for Cc1cc(-n2cnc(Cn3ccnc3N)c2)ccc1Cl equal to or greater than 8?
Data returned: satisfied

Data request: Decide: is the reported value of pIC50 for Cc1nccn1Cc1cncc(-c2ccc3c(c2)CCC3)c1 equal to or greater than 8?
Data returned: not satisfied

Data request: Decide: is the reported value of pIC50 for CSc1ccc(-n2cnc(Cn3ccnc3C)c2)cc1 equal to or greater than 8?
Data returned: not satisfied
